Experiment: Quantitative highthroughput screen to assess conditional lethalithy of SEM cells grown in RPMI1640 with unreated serum (RPMI+s) (AID 1963883); further: nearly all actives have a fitted effect of over 35% in size; further: potency means the concentration at half of the fitted maximal effect;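 on viability: 100% = DMSO wells and 0% = empty wells without cells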
Conditions: SEM B-ALL cells, CellTiter-Glo viability, 48 h; series mostly up to 45.8 µM
Description: Assay Provider: Jason Cantor Ph.D. Department of Biochemistry University of Wisconsin-Madison, Madison, WI, USA Chemical screening studies have identified drug sensitivities across hundreds of cancer cell lines but most putative therapeutics fail to translate. […] Sets of conditional anticancer compounds spanned phases of clinical development and included non-oncology drugs were assessed. […] 6; Detection; Luminescence, Viewlux PerkinElmer. […]
Inconclusive results are not listed. Active and inactive are the calls of the source. The call rests on the fitted dose curve; in most records, active means well fitted cell-killing curve with a large enough effect; inconclusive means small, poorly fitted or top-dose-only effect, or effect the other way; inactive means no such curve, though single readings can be large or run the other way.
quantity-kind: Potency

compound=Cc1[nH]c2ccccc2c1CCNCc1ccc(C=CC(=O)NO)cc1 quantity_kind=Potency observed_value="0.264 µM (active)"
compound="CCC1(C)CC(=O)NC1=O (centres undefined)" quantity_kind=Potency observed_value=inactive
compound=C[C@@H]1CCO[C@H]2Cn3cc(C(=O)NCc4ccc(F)cc4F)c(=O)c(O)c3C(=O)N12 quantity_kind=Potency observed_value=inactive
compound=C[C@](N)(Cc1ccc(O)c(O)c1)C(=O)O quantity_kind=Potency observed_value="23.5 µM (active)"
compound="CCOc1ccccc1OCCNC(C)Cc1ccc(OC)c(S(N)(=O)=O)c1 (centres undefined)" quantity_kind=Potency observed_value=inactive
compound=Nc1nc(NCCNc2ncc(-n3ccnc3)c(-c3ccc(Cl)cc3Cl)n2)ccc1[N+](=O)[O-] quantity_kind=Potency observed_value=inactive
compound=O=c1[nH]nc(Sc2ncc([N+](=O)[O-])s2)n1-c1ccc2c(c1)OCCO2 quantity_kind=Potency observed_value="7.43 µM (active)"
compound=CN1CCN(Cc2ccc(NC(=O)Nc3ccc(Oc4cc(NC(=O)C5CC5)ncn4)cc3)cc2C(F)(F)F)CC1 quantity_kind=Potency observed_value="0.0118 µM (active)"
compound="Cc1ccccc1C(OCCN(C)C)c1ccccc1 (centres undefined)" quantity_kind=Potency observed_value=inactive
compound="CC(C)C1CCC(C(=O)N[C@H](Cc2ccccc2)C(=O)O)CC1 (some centres undefined)" quantity_kind=Potency observed_value=inactive
compound=CCN1CCN(Cc2ccc(-c3cc4c(N[C@H](C)c5ccccc5)ncnc4[nH]3)cc2)CC1 quantity_kind=Potency observed_value="14.8 µM (active)"
compound=CCN(CC)CCOc1ccc(C(=C(Cl)c2ccccc2)c2ccccc2)cc1 quantity_kind=Potency observed_value=inactive
compound=COC(=O)Nc1cc(Nc2cc(NC3CC3)c3ncc(C#N)n3n2)c(Cl)c(N2CCN(C)CC2)c1 quantity_kind=Potency observed_value="2.63 µM (active)"
compound=CN(C)CC[C@H](CSc1ccccc1)Nc1ccc(S(=O)(=O)NC(=O)c2ccc(N3CCN(Cc4ccccc4-c4ccc(Cl)cc4)CC3)cc2)cc1[N+](=O)[O-] quantity_kind=Potency observed_value="0.0935 µM (active)"
compound=COc1cccc2c1C(=O)c1c(O)c3c(c(O)c1C2=O)C[C@@](O)(C(=O)CO)C[C@@H]3O[C@H]1C[C@H](N)[C@@H](O)[C@H](C)O1 quantity_kind=Potency observed_value="1.48 µM (active)"
compound=CC[C@H](CC#N)OC(=O)N[C@@H](C)c1cccc(NC(=O)Nc2ccc(-c3cnco3)c(OC)c2)c1 quantity_kind=Potency observed_value="2.09 µM (active)"
compound=NC(=O)NO quantity_kind=Potency observed_value="4.18 µM (active)"
compound=N#Cc1c(O)c2c(-c3ccc(-c4ccccc4O)cc3)csc2[nH]c1=O quantity_kind=Potency observed_value=inactive
compound=COc1cc(C=CC(=O)CC(=O)C=Cc2ccc(O)c(OC)c2)ccc1O quantity_kind=Potency observed_value="17.1 µM (active)"
compound="CCC(C)N(C)C(=O)c1cc2ccccc2c(-c2ccccc2Cl)n1 (centres undefined)" quantity_kind=Potency observed_value=inactive
compound=O=C(c1ccc(F)cc1)C1CCN(CCn2c(=O)[nH]c3ccccc3c2=O)CC1 quantity_kind=Potency observed_value=inactive
compound="Cn1c(=O)c2c(ncn2CC(O)CO)n(C)c1=O (centres undefined)" quantity_kind=Potency observed_value=inactive
compound=C[C@H](NCc1ccc2c(c1)nc(NC(=O)c1ccc(-c3cn[nH]c3)s1)n2CCc1ccccc1)C(C)(C)C quantity_kind=Potency observed_value="0.526 µM (active)"
compound="CCCCCOC(=O)Nc1nc(=O)n([C@@H]2O[C@H](C)[C@@H](O)C2O)cc1F (some centres undefined)" quantity_kind=Potency observed_value=inactive
compound=CC1(C)CCC(c2ccc(Cl)cc2)=C(CN2CCN(c3ccc(C(=O)NS(=O)(=O)c4ccc(N[C@H](CCN5CCOCC5)CSc5ccccc5)c(S(=O)(=O)C(F)(F)F)c4)cc3)CC2)C1 quantity_kind=Potency observed_value="0.0526 µM (active)"
compound=COC(=O)N1CCN(Cc2cccc(NC(=O)Nc3ccc(C)nc3)c2F)CC1 quantity_kind=Potency observed_value=inactive
compound=CC(C)c1ccc2oc3nc(N)c(C(=O)O)cc3c(=O)c2c1 quantity_kind=Potency observed_value=inactive
compound="C[C@]12CC[C@H](O)CC1=CCC1C2CC[C@]2(C)C(n3cnc4ccccc43)=CCC12 (some centres undefined)" quantity_kind=Potency observed_value=inactive
compound=COc1ccc(CCC(=O)Nc2nc3ccc(Cl)cc3s2)cc1OC quantity_kind=Potency observed_value=inactive
compound=Cc1ccc(S(=O)(=O)OCC(=O)Nc2ccc(C(=O)O)c(O)c2)cc1 quantity_kind=Potency observed_value="16.6 µM (active)"
compound=CO[C@@H](C(=O)N1Cc2[nH]nc(NC(=O)c3ccc(N4CCN(C)CC4)cc3)c2C1)c1ccccc1 quantity_kind=Potency observed_value="0.0743 µM (active)"
compound="CC(COc1ccccc1)N(CCCl)Cc1ccccc1 (centres undefined)" quantity_kind=Potency observed_value=inactive
compound=O=C(Nc1nc2ccccc2n1CCN1CCOCC1)c1cccc([N+](=O)[O-])c1 quantity_kind=Potency observed_value=inactive
compound=CCN(CCO)CCCOc1ccc2c(Nc3cc(CC(=O)Nc4cccc(F)c4)[nH]n3)ncnc2c1 quantity_kind=Potency observed_value="0.264 µM (active)"
compound=COc1ccc(C(C)=O)c(O)c1 quantity_kind=Potency observed_value=inactive
compound="COc1cc(C)c(Sc2cnc(NC(=O)c3ccc(CNC(C)C(C)C)cc3)s2)cc1C(=O)N1CCN(C(C)=O)CC1 (centres undefined)" quantity_kind=Potency observed_value="5.26 µM (active)"
compound=CCN(CC)Cc1ccc2cc(COC(=O)Nc3ccc(C(=O)NO)cc3)ccc2c1 quantity_kind=Potency observed_value="2.09 µM (active)"
compound=CCn1c(=O)c2c(nc(C=Cc3ccc(OC)c(OC)c3)n2C)n(CC)c1=O quantity_kind=Potency observed_value=inactive
compound="CN1[C@@H]2CCC[C@@H]1CC(NC(=O)c1nn(C)c3ccccc13)C2 (some centres undefined)" quantity_kind=Potency observed_value=inactive

###

Assay: Quantitative highthroughput screen to assess conditional lethalithy of NOMO1 cells grown in RPMI1640 with dialyzed fetal bovine serum (RPMI+ds) (AID 1963877); further: nearly all actives have a fitted effect of over 30% in size;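 on viability: 100% = DMSO control wells and 0% = empty wells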
Conditions: NOMO1 in RPMI+dialyzed FBS viability, ATP luminescence, 48 h; series mostly up to 45.8 µM
Records with an inconclusive call do not appear. The source made the active and inactive calls. The call rests on the fitted dose curve; in most records, active means well fitted cell-killing curve with a large enough effect; inconclusive means small, poorly fitted or top-dose-only effect; inactive means flat fitted curve, though single readings scatter.
Possible outcomes: 1 (active), -1 (inactive)

molecule="CC1COC2(CCN(c3nc(=O)c4cc(C(F)(F)F)cc([N+](=O)[O-])c4s3)CC2)O1 (stereo not given)" label_value=-1
molecule="CCCNCC(O)COc1ccccc1C(=O)CCc1ccccc1 (stereo not given)" label_value=-1
molecule=N[C@@H](Cc1ccc(O)c(O)c1)C(=O)O label_value=-1
molecule=COc1cc([C@@H](CC(=O)O)c2ccc(C)c(CN3C[C@@H](C)Oc4ccccc4S3(=O)=O)c2)cc2nnn(C)c12 label_value=-1
molecule=CN(C)c1ccc(C(=O)NCCCCCCC(=O)NO)cc1 label_value=1
molecule=NNC(=O)c1ccncc1 label_value=-1
molecule=O=c1cc(CN2CCOCC2)occ1OCCCCCSc1ccnc2cc(C(F)(F)F)ccc12 label_value=-1
molecule=CC1CCN(c2cc(N3CCN(C)CC3)ccc2NC(=O)c2cc(C#N)c[nH]2)CC1 label_value=-1
molecule="CC1CC2C3CCC4=CC(=O)C=C[C@]4(C)[C@@]3(F)[C@@H](O)C[C@]2(C)[C@@]1(O)C(=O)CO (stereo not given in full)" label_value=-1
molecule=CCc1cncnc1N1CCN(Cc2nc3ccc(C(F)(F)F)cc3[nH]2)CC1 label_value=-1

###

Assay: Quantitative highthroughput screen to assess conditional lethalithy of NOMO1 cells grown in RPMI1640 with dialyzed fetal bovine serum (RPMI+ds) (AID 1963877); further: nearly all actives have a fitted effect of over 30% in size; further: potency means the concentration at half of the fitted maximal effect;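 on viability: 100% = DMSO control wells and 0% = empty wells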
Settings: NOMO1 in RPMI+dialyzed FBS viability, ATP luminescence, 48 h; series mostly up to 45.8 µM
Results filed as inconclusive are left out. The source made the active and inactive calls. Calls follow the shape of the dose curve; as a rule, active = well fitted cell-killing curve with a large enough effect; inconclusive = small, poorly fitted or top-dose-only effect; inactive = flat fitted curve, though single readings scatter.
quantity-kind: Potency

compound=Nc1ccc(S(=O)(=O)Nc2ccnn2-c2ccccc2)cc1 quantity_kind=Potency observed_value=inactive
compound=CNC(=O)c1cc(COc2nnc(Nc3ccc(Cl)cc3)c3ccoc23)ccn1 quantity_kind=Potency observed_value=inactive
compound=O=C(O)C=Cc1ccc(Cn2ccnc2)cc1 quantity_kind=Potency observed_value=inactive
compound=O=C1NC(=O)C(=Cc2cccc(C(F)(F)F)c2)S1 quantity_kind=Potency observed_value=inactive
compound="O=c1c(-c2ccc(O)cc2)coc2cc(OC3O[C@H](CO)[C@H](O)[C@H](O)[C@H]3O)cc(O)c12 (stereo partly specified)" quantity_kind=Potency observed_value=inactive
compound=CC[C@@]1(O)C(=O)OCc2c1cc1n(c2=O)Cc2cc3cc(O)ccc3nc2-1 quantity_kind=Potency observed_value="148 nM (active)"

Where these numbers come from: PubChem BioAssay (NCATS)
